Tested on: Zika virus NS2B-NS3 protease (unlinked complex)
Test: Primary screen GU Rhodamine qHTS for Zika virus inhibitors: Unlinked NS2B-NS3 protease assay (AID 1347159); note: % is set by controls: 0 for no effect and ±100 for the full control effect; nearly all actives have a fitted effect of over 60% in size
Conditions: Recombinant ZIKV NS2B-NS3 protease, Rhodamine110 substrate fluorescence; series mostly up to 107 µM
Inconclusive results are not listed. The source made the active and inactive calls. Calls come from the whole dose curve; as a rule, active = well fitted inhibition curve with a large enough effect; inconclusive = small, poorly fitted or top-dose-only effect; inactive = no such curve, though single readings can be large or run the other way.
test-readout: activity change, negative = inhibition

{"columns": ["molecule", "experimental-value"],
 "data": [
  ["C[C@@H]1O[C@@H](O[C@H]2[C@H](O)[C@@H](O)[C@H](OC[C@H]3O[C@@H](OC(=O)[C@]45CCC(C)(C)C[C@H]4C4=CCC6[C@@]7(C)CC[C@H](O[C@@H]8OC[C@H](O)[C@H](O[C@@H]9O[C@H](CO)[C@@H](O)[C@H](O)[C@H]9O)[C@H]8O)[C@@](C)(CO)C7CC[C@@]6(C)[C@]4(C)CC5)[C@H](O)[C@@H](O)[C@@H]3O)O[C@@H]2CO)[C@H](O)[C@H](O)[C@H]1O (some centres not stated)", "4.91% [at 19.1 µM] (inactive)"]
]}

// map CN(C)C(=O)NC1CCC(CCN2CCN(c3cccc(Cl)c3Cl)CC2)CC1 (configuration not stated) to recorded activity change, negative = inhibition (system: Zika virus NS2B-NS3 protease (unlinked complex))
13.9% [at 19.1 µM] (inactive)

Kindly state the measured activity change, negative = inhibition obtained for C[C@@H]1O[C@@H](O[C@H]2[C@H](OC(=O)[C@]34CCC(C)(C)C[C@H]3C3=CCC5[C@@]6(C)C[C@H](O)[C@H](O[C@@H]7O[C@H](CO)[C@@H](O)[C@H](O)[C@H]7O)[C@@](C)(CO)C6[C@H](O)C[C@@]5(C)[C@]3(C)CC4)OC[C@H](O)[C@@H]2O)[C@H](O)[C@H](O)[C@H]1O[C@@H]1OC[C@@H](O)[C@H](O[C@@H]2OC[C@](O)(CO)[C@H]2O)[C@H]1O (some centres not stated) with Zika virus NS2B-NS3 protease (unlinked complex).
-1.32% [at 19.1 µM] (inactive)
